All figures here come from patent US20140120095A1.

Biological target: T1, recombinant human VEGF165 (human, UniProt P15692-4 27-191, biotinylated in the competition assays)
T1 construct: Bought protein; also called hVEGF165; rhVEGF165
T1 sequence (P15692 other isoform, or with tags, fused parts or gaps): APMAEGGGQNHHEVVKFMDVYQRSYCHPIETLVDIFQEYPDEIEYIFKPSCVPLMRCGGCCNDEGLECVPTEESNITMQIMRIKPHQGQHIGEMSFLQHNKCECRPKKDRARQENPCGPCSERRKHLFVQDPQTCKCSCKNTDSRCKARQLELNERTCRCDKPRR
Experiment: SPR Biacore, immobilised hVEGF165, two state reaction model
Each entry below carries its recorded ka1.
A number alone suffices; assume M⁻¹ s⁻¹.

- Binder: "VEGFBII025 (VHH, not shown: small tags and cut ends, Bivalent anti-VEGF VHH; also called VEGFBII10E07-40GS-23B04) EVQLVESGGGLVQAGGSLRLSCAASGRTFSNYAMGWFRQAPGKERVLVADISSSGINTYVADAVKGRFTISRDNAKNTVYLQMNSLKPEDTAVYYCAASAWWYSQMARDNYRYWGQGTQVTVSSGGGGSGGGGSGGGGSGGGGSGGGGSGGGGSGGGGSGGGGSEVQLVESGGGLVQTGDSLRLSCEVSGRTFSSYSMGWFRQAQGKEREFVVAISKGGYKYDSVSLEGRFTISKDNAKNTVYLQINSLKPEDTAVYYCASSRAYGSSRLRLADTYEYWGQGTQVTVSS"
  Unit annotation: "M⁻¹ s⁻¹"
  ka1: 330000

Moving on to another binder below.
Please report ka1 for the following binder: VEGFBII010 (VHH, not shown: small tags and cut ends, Homodimeric bivalent anti-VEGF VHH; also called VEGFBII23B04-35GS-23B04) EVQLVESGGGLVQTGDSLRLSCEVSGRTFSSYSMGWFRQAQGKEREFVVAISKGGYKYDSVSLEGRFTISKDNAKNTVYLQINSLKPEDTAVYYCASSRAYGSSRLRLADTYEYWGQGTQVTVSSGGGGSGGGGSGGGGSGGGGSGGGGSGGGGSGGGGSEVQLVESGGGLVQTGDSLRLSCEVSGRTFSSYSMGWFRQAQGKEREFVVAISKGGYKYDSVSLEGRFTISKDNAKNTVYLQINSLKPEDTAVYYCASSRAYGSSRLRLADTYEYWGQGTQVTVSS
450000
